Catalogue of IC50 values
Tested on: SW480
Experiment: Cytotoxicity against Wnt-dependent human SW480 cells assessed as cell viability after 24 hrs by fluorescence assay
Type: functional, cell-based
Conditions: SW480, 24 h
Give your result in µM as a bare value.

CC[C@H]1C[C@@H]2CN3CCc4c([nH]c5cc(OC)ccc45)[C@](C(=O)OC)(C2)[C@H]13 :: 11.2

Please examine the following record next.
Lab book: IC50 of CC[C@H]1C[C@@H]2CN3CCc4c([nH]c5ccccc45)[C@](C(=O)OC)(C2)[C@H]13 noted as 10.4

---

Tested on: HEK293
Test: Cytotoxicity against HEK293 cells assessed as cell viability after 24 hrs by fluorescence assay
Type: cell-based
Settings: Homo sapiens, HEK293, 24 h
quantity_kind: IC50 (µM)
Give your result in µM as a bare value.

CC[C@H]1C[C@@H]2CN3CCc4c([nH]c5cc(OC)ccc45)[C@](C(=O)OC)(C2)[C@H]13 :: 35.6

Please examine the following record next.
Lab book: IC50 of CC[C@H]1C[C@@H]2CN3CCc4c([nH]c5ccccc45)[C@](C(=O)OC)(C2)[C@H]13 noted as 31.7

---

Test system: HEK-293T
Assay: Cytotoxicity against HEK293T cells assessed as cell viability after 24 hrs by fluorescence assay
Format: cell-based
Details: Homo sapiens
pIC50: −log10 of the molar value.
Catalogue of pIC50 values

CC[C@H]1C[C@@H]2CN3CCc4c([nH]c5ccc(OC)cc45)[C@](C(=O)OC)(C2)[C@H]13 :: < 4.40
CC[C@H]1C[C@@H]2CN3CCc4c([nH]c5cc(OC)ccc45)[C@](C(=O)OC)(C2)[C@H]13 :: < 4.40
CC[C@H]1C[C@@H]2CN3CCc4c([nH]c5ccccc45)[C@](C(=O)OC)(C2)[C@H]13 :: < 4.40

Please examine the following record next.
Lab book: pIC50 of CC[C@H]1C[C@@H]2CN3CC[C@]4(O)C(=Nc5ccccc54)[C@](C(=O)OC)(C2)[C@H]13 [CORONARIDINE HYDROXYINDOLENINE] noted as < 4.40

---

Assay: Inhibition of Wnt/beta-catenin in human STF/293 cells assessed as inhibition of TCF/beta catenin transcription after 24 hrs by SuperTOPFlash reporter gene assay
Format: cell-based
Details: STF/293, 24 h
quantity_kind: IC50
Returns: string containing the number followed by the unit.

Lab book: IC50 of CC[C@H]1C[C@@H]2CN3CCc4c([nH]c5ccc(OC)cc45)[C@](C(=O)OC)(C2)[C@H]13 noted as 11.5 µM

Lab book: IC50 of CC[C@H]1C[C@@H]2CN3CC[C@]4(O)C(=Nc5ccccc54)[C@](C(=O)OC)(C2)[C@H]13 [CORONARIDINE HYDROXYINDOLENINE] noted as 7.3 µM

Lab book: IC50 of CC[C@H]1C[C@@H]2CN3CCc4c([nH]c5cc(OC)ccc45)[C@](C(=O)OC)(C2)[C@H]13 noted as 6 µM

Lab book: IC50 of CC[C@H]1C[C@@H]2CN3CCc4c([nH]c5ccccc45)[C@](C(=O)OC)(C2)[C@H]13 noted as 5.8 µM
